Molecular target: COX-2 (Mus musculus (Mouse), UniProt Q05769)
Sequence (Q05769 18-604): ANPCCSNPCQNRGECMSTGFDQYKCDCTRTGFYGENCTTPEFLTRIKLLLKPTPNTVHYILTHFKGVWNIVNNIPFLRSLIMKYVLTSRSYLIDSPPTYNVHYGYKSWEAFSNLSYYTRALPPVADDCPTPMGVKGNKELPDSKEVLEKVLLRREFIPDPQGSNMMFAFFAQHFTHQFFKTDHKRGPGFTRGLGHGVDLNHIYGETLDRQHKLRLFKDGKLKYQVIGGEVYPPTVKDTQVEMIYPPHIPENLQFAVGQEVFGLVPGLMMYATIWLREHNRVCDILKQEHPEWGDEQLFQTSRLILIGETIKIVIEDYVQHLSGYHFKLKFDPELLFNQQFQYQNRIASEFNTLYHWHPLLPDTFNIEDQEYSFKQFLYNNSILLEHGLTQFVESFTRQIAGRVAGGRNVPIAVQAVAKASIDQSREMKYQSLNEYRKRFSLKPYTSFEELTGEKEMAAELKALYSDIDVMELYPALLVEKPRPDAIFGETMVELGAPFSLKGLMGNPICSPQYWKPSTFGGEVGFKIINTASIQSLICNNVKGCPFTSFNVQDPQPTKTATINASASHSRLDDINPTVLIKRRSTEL
Test: Evaluation of COX-2 activity: PGE2 production in LPS-stimulated J774 cells
Conditions: J774 cells stimulated 24 hours with LPS 10 μg/mL; PGE2 by radio-immunological assay; read-out: Cyclooxygenase inhibition COX-2 IC50
Experimental: The murine monocyte/macrophage cell line J774 is grown in Dulbecco's modified Eagle's medium (DMEM), enriched with glutamine (2 mM), HEPES (25 mM), penicillin (100 u/mL), streptomycin (100 μg/mL), 10% of fetal bovine serum (FBS) and 1.2% of sodium pyruvate. […] In each group of experiments, wells were used in triplicate for the different treatment conditions. […] The data were evaluated using the sigmoidal dose-response equation (variable slope) (GraphPad software). […]
IC50 values for the molecules below.

- MOLECULE: "CSc1ccc(-n2c(-c3ccc(S(C)(=O)=O)cc3)cc(CC(=O)OCCCCO)c2C)cc1 [Example 14-II]"
  UNIT_SYMBOL: "nM"
  IC50: 55
- MOLECULE: "COc1ccc(-n2c(-c3ccc(S(C)(=O)=O)cc3)cc(CC(=O)OCCO[N+](=O)[O-])c2C)cc1 [Example 4]"
  UNIT_SYMBOL: "nM"
  IC50: 170
- MOLECULE: "Cc1c(CC(=O)NCCO)cc(-c2ccc(S(C)(=O)=O)cc2)n1-c1ccc(F)cc1 [Example 23-II]"
  UNIT_SYMBOL: "nM"
  IC50: 300
- MOLECULE: "Cc1c(CC(=O)NCCCO)cc(-c2ccc(S(C)(=O)=O)cc2)n1-c1cccc(F)c1 [Example 27-II]"
  UNIT_SYMBOL: "nM"
  IC50: 14
- MOLECULE: "Cc1c(CC(=O)NC(CCO)C(=O)O)cc(-c2ccc(S(C)(=O)=O)cc2)n1-c1ccc(F)cc1 (racemic) [Example 32-II]"
  UNIT_SYMBOL: "nM"
  IC50: 86
- MOLECULE: "Cc1c(CCOCCCO)cc(-c2ccc(S(C)(=O)=O)cc2)n1-c1ccc(F)cc1 [Example 41-II]"
  UNIT_SYMBOL: "nM"
  IC50: 940
- MOLECULE: "Cc1c(CC(=O)NCCCO)cc(-c2ccc(S(C)(=O)=O)cc2)n1-c1ccc(F)cc1 [Example 26-II]"
  UNIT_SYMBOL: "nM"
  IC50: 68
